- targetOfAssay: T1, GST-YxxQ (307-545), recombinant CoAA YxxQ repeats (human, UniProt Q96PK6 307-545)
- T1 chain: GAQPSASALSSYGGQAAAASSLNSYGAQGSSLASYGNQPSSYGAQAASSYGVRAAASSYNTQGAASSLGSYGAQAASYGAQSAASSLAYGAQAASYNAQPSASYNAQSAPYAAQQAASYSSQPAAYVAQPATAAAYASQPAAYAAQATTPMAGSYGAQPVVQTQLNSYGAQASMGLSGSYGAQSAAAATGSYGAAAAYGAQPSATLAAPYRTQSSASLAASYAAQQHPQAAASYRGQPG
- assayRemarks: ELISA; competition with biotin-labeled pSer5 CTD peptide
quantity: IC50

{"columns": ["binder", "measuredValue"],
 "data": [
  ["TIERMGSGVERMGPA (diheptad of the IERM repeats of hnRNP M, without biotin label; also called nonlabeled IERM peptide; IERM peptide; source: synthetic peptide) [non-labeled IERM diheptad peptide]", "106 nM"]
]}
